B1: CPEB3 Ribozyme (parent)
chain: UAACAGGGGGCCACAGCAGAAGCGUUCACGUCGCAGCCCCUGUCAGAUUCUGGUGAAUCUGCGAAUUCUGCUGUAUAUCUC

Variants of: B1
Experiment: self-cleavage, relative activity (ratio to wild type); higher = more cleavage; in vitro, sequencing
I would appreciate it if you labelled entries criterion met when self-cleavage is 0.3 or higher, otherwise criterion not met.

Mutant Designation | Qualitative Label
G10C G33A | criterion not met
U25C G42C | criterion met
G6U A15C | criterion not met
C11G A45C | criterion not met
A3U C59A | criterion met
U31C U74C | criterion met
G9A A47G | criterion met
A15G G53C | criterion met
U69C U74C | criterion met
A15C U31C | criterion met
G6A A18C | criterion met
G52A U74C | criterion met
C32U U66A | criterion not met
G19U A47U | criterion met
G22A U25A | criterion not met
U41A G55A | criterion not met
U58C U76A | criterion met
G7U U51A | criterion not met
U1A G46A | criterion met
A15U C23A | criterion not met
A20C C39G | criterion not met
A15G U72C | criterion met
